Source: patent US20180371021A1

Assay: Phase 1 dose-escalation trial of AP1: safety and tolerability
Type: in vivo, human
Settings: human, in vivo, iv; dosed once a week by I.V. administration, patients
valueType: MTD
State the result as a value with its unit after it.

MTD reported for this molecule CC(=O)N[C@@H](CC(C)C)C(=O)N[C@H](C(=O)N[C@@H](Cc1ccccc1)C(=O)N[C@]1(C)CCCCCCC=CCCC[C@@](C)(C(=O)N[C@@H](C)C(=O)N[C@@H](C)C(=O)N[C@@H](C)C(=O)N[C@@H](C)C(=O)N[C@@H](C)C(=O)N[C@H](C)C(N)=O)NC(=O)[C@H](CC(C)C)NC(=O)[C@H](CCC(N)=O)NC(=O)[C@H](C)NC(=O)[C@H](Cc2c[nH]c3ccccc23)NC(=O)[C@H](Cc2ccc(O)cc2)NC(=O)[C@H](CCC(=O)O)NC1=O)[C@@H](C)O : 3.1 mg/kg
